Source listed as patent US20240270821A1.

# system.tested: hGIPR (Homo sapiens, UniProt P48546)
# Sequence (P48546 22-466): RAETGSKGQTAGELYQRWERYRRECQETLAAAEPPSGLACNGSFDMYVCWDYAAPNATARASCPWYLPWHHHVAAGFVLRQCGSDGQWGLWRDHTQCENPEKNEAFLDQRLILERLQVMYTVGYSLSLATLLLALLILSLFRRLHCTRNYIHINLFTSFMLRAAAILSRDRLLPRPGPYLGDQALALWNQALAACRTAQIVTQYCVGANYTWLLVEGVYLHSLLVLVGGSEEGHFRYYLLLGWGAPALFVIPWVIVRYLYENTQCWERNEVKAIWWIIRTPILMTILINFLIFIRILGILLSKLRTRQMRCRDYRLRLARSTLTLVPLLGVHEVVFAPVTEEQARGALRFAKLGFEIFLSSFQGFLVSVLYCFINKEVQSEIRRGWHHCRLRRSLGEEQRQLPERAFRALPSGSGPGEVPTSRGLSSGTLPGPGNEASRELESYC
# experiment: Functional cAMP activation in the presence of 0.1% casein (no HSA)
# Assay type: cell-based
# measurement.conditions: in the presence of 0.1% casein (no HSA); geometric mean; read-out: Relative cAMP EC50, hGIPR
Starred links: 1 amine or outer side, 2 acyl side, 3 side chain; linkers in the order of their positions; H or OH if unused. Non-standard residues stand in square brackets, D forms with d. Groups on a side chain read outwards from the residue. *: point of attachment. C18 diacid = O=C(O)CCCCCCCCCCCCCCCCC(=O)*; γGlu = O=C(O)[C@H](CCC(=O)[*:2])N[*:1]; αMe4Pal = C[C@](N)(Cc1ccncc1)C(=O)O; 4Pal = N[C@@H](Cc1ccncc1)C(=O)O; αMeL = CC(C)C[C@](C)(N)C(=O)O; Orn = NCCC[C@H](N)C(=O)O; AEEA = NCCOCCOCC(=O)O; Aib = CC(C)(N)C(=O)O
Kindly state EC50 for each of the entries shown.
Numbers only, in nM.

H-Y[Aib]QGTFTSD[4Pal]SQ[αMeL]LDKK([AEEA-γGlu-C18 diacid])AQ[αMe4Pal]AFIE[αMe4Pal]LIE[Aib]GPSSGAPPPSGTGE-NH2 [Example 1117]    0.124

Items follow; give EC50 for each.
1. H-Y[Aib]QGTFTSD[4Pal]S[Orn][αMeL]LD[Orn]K([γGlu-γGlu-γGlu-C18 diacid])AQ[αMe4Pal]AFIEYLIE[Aib]GPSSGAPPPSGSE-NH2 [Example 943]
2. H-Y[Aib]QGTFTSD[4Pal]SR[αMeL]LDKK([AEEA-γGlu-C18 diacid])AQ[Aib]AFIEYLIE[Aib]GPSSGAPPPSGS-NH2 [Example 802]

Data returned:
[0.233, 0.124]

====

# system.tested: hGIPR (Homo sapiens, UniProt P48546)
# experiment: Functional cAMP activation in the presence of 0.1% casein (no HSA);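 also: intracellular cAMP rise after 30 min at 37 °C read by HTRF against a standard curve, scaled between buffer alone (0%) and top control ligand concentration (100%), four-parameter fit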
# Format: cell-based
# measurement.conditions: 0.1% casein, no HSA; geometric mean; read-out: Relative cAMP EC50, hGIPR
Starred links: 1 amine or outer side, 2 acyl side, 3 side chain; linkers in the order of their positions; H or OH if unused. Non-standard residues stand in square brackets, D forms with d. Groups on a side chain read outwards from the residue. No end group written: not given here. *: point of attachment. C18 diacid = O=C(O)CCCCCCCCCCCCCCCCC(=O)*; αMePhe(2-F) = C[C@](N)(Cc1ccccc1F)C(=O)O; γGlu = O=C(O)[C@H](CCC(=O)[*:2])N[*:1]; αMe4Pal = C[C@](N)(Cc1ccncc1)C(=O)O; αMeY = C[C@](N)(Cc1ccc(O)cc1)C(=O)O; 4Pal = N[C@@H](Cc1ccncc1)C(=O)O; αMeL = CC(C)C[C@](C)(N)C(=O)O; αMeS = C[C@](N)(CO)C(=O)O; Orn = NCCC[C@H](N)C(=O)O; AEEA = NCCOCCOCC(=O)O; Aib = CC(C)(N)C(=O)O
// NB: equality with 7 pM counts as F; only EC50 strictly below is T

H-Y[Aib]QGT[αMePhe(2-F)]TSD[4Pal][αMeS]I[αMeL]LD[Orn]K([γGlu-γGlu-C18 diacid])AQ[αMe4Pal]EFI[dE][αMeY]LIEGGPPS[Aib][Orn]PPP[Orn]GS-NH2 [Example 1226]    T
H-Y[Aib]QGT[αMePhe(2-F)]TSD[4Pal][αMeS]I[αMeL]LD[Orn]K([AEEA-γGlu-C18 diacid])AQ[αMe4Pal]EFI[dE][αMeY]LIEGGPSSGAPPPEGGGEE-NH2 [Example 1216]    F
Y[Aib]QGT[αMePhe(2-F)]TSD[4Pal][αMeS]I[αMeL]LD[Orn]K([γGlu-γGlu-C18 diacid])AQ[αMe4Pal]EFI[dE][αMeY]LIEGGPSSGAPPPEGGGEEE-NH2 [Example 1221]    F

Data request: Is 7 pM strictly greater than the substance's reported EC50? substance: H-Y[Aib]QGT[αMePhe(2-F)]TSD[4Pal]SI[αMeL]LD[Orn][Orn]([γGlu-γGlu-C18 diacid])AQ[αMe4Pal][Orn]FI[dE][αMeY]LIEGGPSSGEPPPETE-NH2 [Example 1209]
Data returned: F
